Molecular target: GHSR-1a (HEK293/GHSR1a cell line) (Homo sapiens, UniProt Q92847)
Construct: expressed in transfected cells; host or cells: HEK293/GHSR1a cell line
Sequence (Q92847 whole entry): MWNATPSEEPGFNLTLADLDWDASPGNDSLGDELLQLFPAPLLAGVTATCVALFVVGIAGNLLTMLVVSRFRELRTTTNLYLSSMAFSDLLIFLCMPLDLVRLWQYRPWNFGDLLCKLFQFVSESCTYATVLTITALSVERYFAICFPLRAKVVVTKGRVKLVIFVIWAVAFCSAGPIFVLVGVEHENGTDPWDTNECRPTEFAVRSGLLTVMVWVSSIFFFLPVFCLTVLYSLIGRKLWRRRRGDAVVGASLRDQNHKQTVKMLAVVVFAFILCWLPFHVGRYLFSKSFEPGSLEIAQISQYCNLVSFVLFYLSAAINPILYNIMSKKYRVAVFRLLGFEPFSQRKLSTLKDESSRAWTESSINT
Experiment: Ghrelin antagonist potency (IC50) with calcium FLIPR assay, ghrelin 10 nM
Format: cell-based
Details: HEK293/GHSR1a, ghrelin 10 nM, read-out: Activity IC50 (ghrelin antagonist potency)
Collected IC50 values appear next to each entry.

molecule: C[C@H](NC(=O)Nc1ccc(S(=O)(=O)Cc2ccc3c(c2)CCNCC3)cc1)c1ccccc1
IC50 / nM: 62

molecule: CC(NC(=O)Nc1ccc(S(=O)(=O)Cc2ccc3c(c2)CN(C)C3)cc1)c1cc(F)cc(F)c1 (stereo not shown)
IC50 / nM: 96.5

molecule: CC(NC(=O)Nc1ccc(S(=O)(=O)Cc2ccc3c(c2)CN(CC2CCCO2)C3)cc1)c1ccccc1 (stereo not shown)
IC50 / nM: 69.7

molecule: CC(NC(=O)Nc1ccc(S(=O)(=O)Cc2ccc(CN3CCCC3)cc2)cc1)c1ccccc1 (stereo not shown)
IC50 / nM: 76

====

Assay: Metabolic stability in dog liver microsomes
Format: in vitro ADME

compound: C[C@H](NC(=O)Nc1ccc(S(=O)(=O)Nc2ccc(CC(C)(C)N)cc2)cc1)c1cccc(Cl)c1Cl.Cl
Metabolic Stability Study D = dog: < 10 µL/min/mg

compound: CC(C)(N)Cc1ccc(NS(=O)(=O)c2ccc(NC(=O)NCc3ccccc3)cc2)cc1.Cl
Metabolic Stability Study D = dog: < 10 µL/min/mg

compound: CC(NC(=O)Nc1ccc(S(=O)(=O)Cc2nc3c(s2)CN(C)CC3)cc1)c1cccc(Cl)c1Cl (stereo not shown)
Metabolic Stability Study D = dog: > 500 µL/min/mg

====

Biological target: recombinant human ghrelin receptor (HEK293/GRLN) (Homo sapiens, UniProt Q92847)
Construct: expressed in transfected cells
Sequence (Q92847 whole entry): as above
Experiment: Ghrelin inverse agonist potency (EC50) with IP-1 (IP-One HTRF) assay
Format: cell-based
Settings: inverse agonist potency, IP-1 assay; read-out: EC50 (Activity)
Labelling field: enter YES if recorded EC50 is less than 100 nM. Enter NO if it equals or exceeds that cut-off.

smiles: C[C@H](NC(=O)Nc1ccc(S(=O)(=O)N(C)c2ccc(CC(C)(C)N)cc2)cc1)c1cccc(Cl)c1Cl.Cl
target: recombinant human ghrelin receptor (HEK293/GRLN) (Homo sapiens, UniProt Q92847)
label: NO
//
smiles: O=C(NCc1ccccc1Cl)Nc1ccc(S(=O)(=O)Cc2ccc3c(c2)CCNC3)cc1
target: recombinant human ghrelin receptor (HEK293/GRLN) (Homo sapiens, UniProt Q92847)
label: YES
//
smiles: CC(C)NC(=O)Nc1ccc(S(=O)(=O)Cc2ccc3c(c2)CNC3)cc1
target: recombinant human ghrelin receptor (HEK293/GRLN) (Homo sapiens, UniProt Q92847)
label: NO
//
smiles: C[C@H](NC(=O)Nc1ccc(S(=O)(=O)Nc2ccc3[nH]ccc3c2)cc1)c1cccc(Cl)c1Cl
target: recombinant human ghrelin receptor (HEK293/GRLN) (Homo sapiens, UniProt Q92847)
label: YES
//
smiles: COc1ccc(CNC(=O)Nc2ccc(S(=O)(=O)Cc3ccc4c(c3)CNC4)cc2)cc1
target: recombinant human ghrelin receptor (HEK293/GRLN) (Homo sapiens, UniProt Q92847)
label: NO
//
smiles: COc1ccc([C@H](C)NC(=O)Nc2ccc(S(=O)(=O)Nc3ccc4c(c3)CCN(C)C4)cc2)c(Cl)c1Cl
target: recombinant human ghrelin receptor (HEK293/GRLN) (Homo sapiens, UniProt Q92847)
label: YES
